Listing: normalized growth of selected molecules
- protocol-summary: chemical genetic growth profiling, strain panel (AID 1159580);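 further: tested at 20 µM; growth read once vehicle control cultures reached saturation at 30 °C; 1 = growth at the plate median or of vehicle wells; lower values mean less growth of the strain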
- reported-conditions: S. cerevisiae deletion strains, growth OD, locus YLR085C, strain ARP6, stronger effect = lower value
The whole screen tested about 5,500 compounds, of which about 2,000 (36%) were called active. Another 18% or so got no clear call; they are omitted. This is one part of the list.
Enter the number alone.

Below, 3 molecules whose answers are already recorded.
O=C(O)c1cnn(-c2ccccc2)c1C(F)(F)F    1.05
COC(=O)c1c(C)[nH]c(C)c1C(C)=O    1.18
Nc1cc(-c2ccc(Cl)cc2)nc(N)n1    1.02

Requested read-out: normalized growth. Entry: `CN(C)C=Nc1nc2c(s1)CCc1ccccc1-2`
0.622

I'd like to know its normalized growth. The molecule in question is `COC(=O)c1cc(OC)c(OC)c(OC)c1NS(=O)(=O)c1cc(OC)ccc1OC`
1.02

Tell me the measured normalized growth of `CN(C)/C=C1\C(=O)c2ccccc2N(C)S1(=O)=O` , please.
1.06
